# method description: Protein binding by equilibrium dialysis (plasma, tissue homogenates, DPBS)
# Format: in vitro ADME, rat
# condition details: rat, plasma, Percent Unbound
observable: fraction unbound at 7 h, 3000 ng/mL
Give bare numbers.

I have this molecule here, CC(=O)CC(c1ccccc1)c1c(O)c2ccccc2oc1=O (stereo not shown) [14C-warfarin, warfarin, reference compound] , and I need its recorded fraction unbound at 7 h, 3000 ng/mL.
0.0146

###

# method description: Mouse pharmacokinetics in CD-1 mice (blood, kidney, liver, lung)
# Assay type: in vivo
# condition details: male, CD-1, mouse, kidney, intravenous, 20 mg/kg, for the 2 dose levels (1, 20 mg/kg); read-out: Tissue-to-blood AUC ratio, kidney
observable: Kp

Suppose we examine the molecule Cc1ncsc1-c1ccc(C(C)NC(=O)C2CC(O)CN2C(=O)C(c2cc(N3CCC(CN4CCC(OC5CC(Oc6cc(N7C8CCC7CN(c7cc(-c9ccccc9O)nnc7N)C8)ccn6)C5)CC4)CC3)no2)C(C)C)cc1 (stereo not shown) [A947] ; what Kp value has been reported?
160 to 243

###

# method description: Mouse pharmacokinetics in CD-1 mice (blood, kidney, liver, lung)
# Type: in vivo
# condition details: male, CD-1, mouse, in vivo, 20 mg/kg, Lung; 8 h; 20 mg/kg IV; mean; read-out: Concentration (µM) from 20 mg/kg Dosing Lung
# Protocol: For the PK study, a total of 42 male CD-1 mice weighing ~20-35 g were acquired from Lingchang/Vital River Laboratory Animal Co., Ltd. (Shanghai/Beijing, P.R. China) and divided into 2 treatment groups. […] For the low-dose groups, nine animals were required for organ quantification with termination at 24 hours. For the high-dose groups, 12 animals were required for organ quantification with termination at 48 hours. […] The concentrations of […] were quantified by an LC-MS/MS method. […]
observable: concentration at 8 h (µM)
Give bare numbers, in µM.

// concentration at 8 h lookup, key: Cc1ncsc1-c1ccc(C(C)NC(=O)C2CC(O)CN2C(=O)C(c2cc(N3CCC(CN4CCC(OC5CC(Oc6cc(N7C8CCC7CN(c7cc(-c9ccccc9O)nnc7N)C8)ccn6)C5)CC4)CC3)no2)C(C)C)cc1 (stereo not shown)
2.31

###

# subject of test: CYP2D6 (Homo sapiens, UniProt P10635)
# Construct: phosphate buffer (100 mM, pH 7.4) containing human liver microsomes (HLM); from tissue; host or cells: human liver microsomes
# Sequence (P10635 whole entry): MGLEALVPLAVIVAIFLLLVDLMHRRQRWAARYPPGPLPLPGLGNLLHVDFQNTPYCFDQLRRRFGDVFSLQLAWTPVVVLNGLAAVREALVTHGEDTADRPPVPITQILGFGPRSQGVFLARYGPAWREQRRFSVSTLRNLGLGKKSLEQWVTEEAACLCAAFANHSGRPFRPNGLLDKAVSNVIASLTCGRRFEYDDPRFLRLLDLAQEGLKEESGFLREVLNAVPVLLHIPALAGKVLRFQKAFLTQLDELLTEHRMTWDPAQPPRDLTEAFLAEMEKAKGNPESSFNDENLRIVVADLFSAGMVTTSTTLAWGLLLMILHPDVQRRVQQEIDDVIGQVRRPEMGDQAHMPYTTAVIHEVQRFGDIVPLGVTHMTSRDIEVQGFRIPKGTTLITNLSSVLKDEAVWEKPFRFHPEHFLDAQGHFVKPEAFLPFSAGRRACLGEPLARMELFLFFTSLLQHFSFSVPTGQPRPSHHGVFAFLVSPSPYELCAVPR
# method description: Reversible P450 inhibition in HLM
# Format: biochemical
# condition details: human liver microsomes, pH 7.4, probe dextromethorphan, substrate Dextromethorphan
observable: IC50

Quick check: IC50 on CYP2D6 (Homo sapiens, UniProt P10635), item Cc1ncsc1-c1ccc(C(C)NC(=O)C2CC(O)CN2C(=O)C(c2cc(N3CCC(CN4CCC(OC5CC(Oc6cc(N7C8CCC7CN(c7cc(-c9ccccc9O)nnc7N)C8)ccn6)C5)CC4)CC3)no2)C(C)C)cc1 (stereo not shown) [A947] ?
> 10 µM

###

# method description: Mouse pharmacokinetics in CD-1 mice (blood, kidney, liver, lung)
# Assay type: in vivo
# condition details: male, CD-1, mouse, in vivo, 1 mg/kg, Lung; 4 h; 1 mg/kg IV; individual animals; read-out: Concentration (µM) from 1 mg/kg Dosing Lung
observable: concentration at 4 h (µM)
One number for each entry, in µM.

# get_value(readout='concentration at 4 h', item= Cc1ncsc1-c1ccc(C(C)NC(=O)C2CC(O)CN2C(=O)C(c2cc(N3CCC(CN4CCC(OC5CC(Oc6cc(N7C8CCC7CN(c7cc(-c9ccccc9O)nnc7N)C8)ccn6)C5)CC4)CC3)no2)C(C)C)cc1 (stereo not shown) [A947] )
0.098

###

# method description: Mouse pharmacokinetics in CD-1 mice (blood, kidney, liver, lung)
# Type: in vivo
# condition details: male, CD-1, mouse, blood, intravenous, 20 mg/kg, Blood; 12 h; 20 mg/kg IV; individual animals; read-out: Concentration (µM) from 20 mg/kg Dosing Blood
observable: concentration at 12 h (µM)
Answers are plain numbers, in µM.

Quick one: concentration at 12 h for Cc1ncsc1-c1ccc(C(C)NC(=O)C2CC(O)CN2C(=O)C(c2cc(N3CCC(CN4CCC(OC5CC(Oc6cc(N7C8CCC7CN(c7cc(-c9ccccc9O)nnc7N)C8)ccn6)C5)CC4)CC3)no2)C(C)C)cc1 (stereo not shown) ?
0.019

###

# System: CYP3A4/5
# method description: Reversible P450 inhibition in HLM
# Type: biochemical
# condition details: human, human liver microsomes, pH 7.4, probe midazolam, substrate Midazolam
observable: pIC50
Answers are plain numbers, as −log10 of the molar value.

What value of measured pIC50 is listed for Cc1ncsc1-c1ccc(C(C)NC(=O)C2CC(O)CN2C(=O)C(c2cc(N3CCC(CN4CCC(OC5CC(Oc6cc(N7C8CCC7CN(c7cc(-c9ccccc9O)nnc7N)C8)ccn6)C5)CC4)CC3)no2)C(C)C)cc1 (stereo not shown) [A947] ?
6.27

###

# method description: Mouse pharmacokinetics in CD-1 mice (blood, kidney, liver, lung)
# Type: in vivo
# condition details: male, CD-1, mouse, in vivo, 20 mg/kg, Liver; 8 h; 20 mg/kg IV; individual animals; read-out: Concentration (µM) from 20 mg/kg Dosing Liver
observable: concentration at 8 h (µM)
One number for each entry, in µM.

Can you share its concentration at 8 h? I mean this compound: Cc1ncsc1-c1ccc(C(C)NC(=O)C2CC(O)CN2C(=O)C(c2cc(N3CCC(CN4CCC(OC5CC(Oc6cc(N7C8CCC7CN(c7cc(-c9ccccc9O)nnc7N)C8)ccn6)C5)CC4)CC3)no2)C(C)C)cc1 (stereo not shown) [A947]
15.1

###

# subject of test: CYP2C8 (Homo sapiens)
# Construct: phosphate buffer (100 mM, pH 7.4) containing human liver microsomes (HLM); from tissue; host or cells: human liver microsomes
# Sequence (P10632 whole entry): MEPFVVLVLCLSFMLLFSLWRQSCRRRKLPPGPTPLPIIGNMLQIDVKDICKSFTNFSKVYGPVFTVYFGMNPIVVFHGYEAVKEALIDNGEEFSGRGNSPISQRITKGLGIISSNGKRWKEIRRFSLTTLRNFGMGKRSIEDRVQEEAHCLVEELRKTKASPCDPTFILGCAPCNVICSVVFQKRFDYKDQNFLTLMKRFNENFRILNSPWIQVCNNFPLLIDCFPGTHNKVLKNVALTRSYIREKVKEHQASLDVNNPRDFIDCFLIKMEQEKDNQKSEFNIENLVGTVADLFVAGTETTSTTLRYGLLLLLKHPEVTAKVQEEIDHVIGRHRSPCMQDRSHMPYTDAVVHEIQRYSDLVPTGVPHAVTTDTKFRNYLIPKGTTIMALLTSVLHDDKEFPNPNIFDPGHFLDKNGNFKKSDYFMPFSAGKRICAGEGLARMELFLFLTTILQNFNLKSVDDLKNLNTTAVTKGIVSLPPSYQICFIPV
# method description: Reversible P450 inhibition in HLM
# Format: biochemical
# condition details: human liver microsomes, pH 7.4, probe paclitaxel, substrate Paclitaxel
pIC50: −log10 of the molar value.
observable: pIC50

Which pIC50 reading was recorded for the compound Cc1ncsc1-c1ccc(C(C)NC(=O)C2CC(O)CN2C(=O)C(c2cc(N3CCC(CN4CCC(OC5CC(Oc6cc(N7C8CCC7CN(c7cc(-c9ccccc9O)nnc7N)C8)ccn6)C5)CC4)CC3)no2)C(C)C)cc1 (stereo not shown) ?
< 5.00

###

# method description: Mouse pharmacokinetics in CD-1 mice (blood, kidney, liver, lung)
# Assay type: in vivo
# condition details: male, CD-1, mouse, blood, intravenous, 1 mg/kg, Blood; 2 h; 1 mg/kg IV; mean; read-out: Concentration (µM) from 1 mg/kg Dosing Blood
observable: concentration at 2 h (µM)
Numbers only, in µM.

Given the compound Cc1ncsc1-c1ccc(C(C)NC(=O)C2CC(O)CN2C(=O)C(c2cc(N3CCC(CN4CCC(OC5CC(Oc6cc(N7C8CCC7CN(c7cc(-c9ccccc9O)nnc7N)C8)ccn6)C5)CC4)CC3)no2)C(C)C)cc1 (stereo not shown) [A947] , what is its reported concentration at 2 h?
0.011

###

# method description: Mouse pharmacokinetics in CD-1 mice (blood, kidney, liver, lung)
# Format: in vivo
# condition details: male, CD-1, mouse, kidney, intravenous, 20 mg/kg, Kidney; 48 h; 20 mg/kg IV; mean; read-out: Concentration (µM) from 20 mg/kg Dosing Kidney
observable: concentration at 48 h (µM)
One number for each entry, in µM.

I am curious: what concentration at 48 h value has been reported for Cc1ncsc1-c1ccc(C(C)NC(=O)C2CC(O)CN2C(=O)C(c2cc(N3CCC(CN4CCC(OC5CC(Oc6cc(N7C8CCC7CN(c7cc(-c9ccccc9O)nnc7N)C8)ccn6)C5)CC4)CC3)no2)C(C)C)cc1 (stereo not shown) [A947] ?
0.086

###

# method description: Mouse pharmacokinetics in CD-1 mice (blood, kidney, liver, lung)
# Format: in vivo
# condition details: male, CD-1, mouse, blood, intravenous, 1 mg/kg, Blood; 0.5 h; 1 mg/kg IV; individual animals; read-out: Concentration (µM) from 1 mg/kg Dosing Blood
observable: concentration at 0.5 h (µM)
Give bare numbers, in µM.

Sample Cc1ncsc1-c1ccc(C(C)NC(=O)C2CC(O)CN2C(=O)C(c2cc(N3CCC(CN4CCC(OC5CC(Oc6cc(N7C8CCC7CN(c7cc(-c9ccccc9O)nnc7N)C8)ccn6)C5)CC4)CC3)no2)C(C)C)cc1 (stereo not shown) [A947] — what was its concentration at 0.5 h?
0.055

###

# method description: Mouse pharmacokinetics in CD-1 mice (blood, kidney, liver, lung)
# Type: in vivo
# condition details: male, CD-1, mouse, in vivo, 1 mg/kg, Kidney; 8 h; 1 mg/kg IV; individual animals; read-out: Concentration (µM) from 1 mg/kg Dosing Kidney
observable: concentration at 8 h (µM)
Numbers only, in µM.

I am curious: what concentration at 8 h value has been reported for Cc1ncsc1-c1ccc(C(C)NC(=O)C2CC(O)CN2C(=O)C(c2cc(N3CCC(CN4CCC(OC5CC(Oc6cc(N7C8CCC7CN(c7cc(-c9ccccc9O)nnc7N)C8)ccn6)C5)CC4)CC3)no2)C(C)C)cc1 (stereo not shown) [A947] ?
0.282
